Here the recorded FACS Cell Binding (Fold Above Background) is given for each entry.
assay-system: T1, human prolactin receptor (PRLR) on cells (human, UniProt P16471 25-622)
T1 construct: T47D, T47D#11 and MCF7 carry the endogenous receptor; also called hPRLR; HEK293/hPRLR
T1 sequence: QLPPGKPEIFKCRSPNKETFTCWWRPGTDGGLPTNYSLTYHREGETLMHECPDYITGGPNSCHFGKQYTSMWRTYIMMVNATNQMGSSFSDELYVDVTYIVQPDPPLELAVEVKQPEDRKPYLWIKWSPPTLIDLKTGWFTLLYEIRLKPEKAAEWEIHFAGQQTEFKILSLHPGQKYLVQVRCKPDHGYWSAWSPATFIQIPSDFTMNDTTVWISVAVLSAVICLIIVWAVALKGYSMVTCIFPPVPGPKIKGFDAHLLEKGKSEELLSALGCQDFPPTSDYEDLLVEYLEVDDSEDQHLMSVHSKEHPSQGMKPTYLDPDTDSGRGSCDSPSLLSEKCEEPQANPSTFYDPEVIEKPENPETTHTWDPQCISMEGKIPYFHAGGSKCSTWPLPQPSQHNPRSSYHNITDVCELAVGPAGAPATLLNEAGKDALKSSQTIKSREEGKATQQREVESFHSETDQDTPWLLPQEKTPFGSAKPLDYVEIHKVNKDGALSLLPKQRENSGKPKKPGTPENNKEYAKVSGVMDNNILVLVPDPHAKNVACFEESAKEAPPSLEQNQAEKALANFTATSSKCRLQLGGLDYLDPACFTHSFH
protocol-description: FACS, HEK293/hPRLR cells; note: test concentration or dose not given here
Please respond with the number in fold above background and leave the unit unwritten.

Below, each entry is followed by its recorded FACS Cell Binding (Fold Above Background) result.
binder: H1H6959N2 (antibody, human IgG1, V domains shown, also called H2M6959N2) VH: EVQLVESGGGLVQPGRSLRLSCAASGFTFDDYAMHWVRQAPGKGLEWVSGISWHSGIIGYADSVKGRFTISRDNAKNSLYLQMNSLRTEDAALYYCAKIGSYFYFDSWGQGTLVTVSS VL: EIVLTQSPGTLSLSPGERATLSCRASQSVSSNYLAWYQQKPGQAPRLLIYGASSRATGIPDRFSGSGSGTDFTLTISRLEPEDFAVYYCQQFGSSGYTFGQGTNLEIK
unit-abbreviation: fold above background
observed-result: 6
--
binder: H1H6960N (antibody, human IgG1, V domains shown, also called H2M6960N) VH: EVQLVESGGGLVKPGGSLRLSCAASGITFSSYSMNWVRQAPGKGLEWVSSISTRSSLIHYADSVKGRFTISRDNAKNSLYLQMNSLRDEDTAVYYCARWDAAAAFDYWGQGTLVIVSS VL: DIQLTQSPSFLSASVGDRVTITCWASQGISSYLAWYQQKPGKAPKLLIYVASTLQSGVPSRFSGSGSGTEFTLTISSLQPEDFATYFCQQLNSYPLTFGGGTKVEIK
unit-abbreviation: fold above background
observed-result: 29
--
binder: H1H6765P (antibody, human IgG1, V domains shown, human IgG1 Fc (H1H)) VH: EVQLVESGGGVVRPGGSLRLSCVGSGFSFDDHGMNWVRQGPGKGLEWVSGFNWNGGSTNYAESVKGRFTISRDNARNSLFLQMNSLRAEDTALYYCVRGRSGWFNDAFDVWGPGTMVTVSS VL: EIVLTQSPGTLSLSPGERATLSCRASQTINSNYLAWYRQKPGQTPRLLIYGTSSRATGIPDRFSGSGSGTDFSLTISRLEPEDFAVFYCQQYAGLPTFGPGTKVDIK
unit-abbreviation: fold above background
observed-result: 38
--
binder: H1H6967N (antibody, human IgG1, V domains shown, also called H2M6967N) VH: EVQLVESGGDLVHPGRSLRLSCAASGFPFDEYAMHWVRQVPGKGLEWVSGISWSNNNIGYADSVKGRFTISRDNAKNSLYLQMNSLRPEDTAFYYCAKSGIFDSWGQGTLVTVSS VL: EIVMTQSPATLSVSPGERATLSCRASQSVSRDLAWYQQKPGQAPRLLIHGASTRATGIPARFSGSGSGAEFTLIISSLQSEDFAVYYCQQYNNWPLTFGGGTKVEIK
unit-abbreviation: fold above background
observed-result: 38

Turning to the following binder.
binder H1H6800P (antibody, human IgG1, V domains shown, human IgG1 Fc (H1H)) VH: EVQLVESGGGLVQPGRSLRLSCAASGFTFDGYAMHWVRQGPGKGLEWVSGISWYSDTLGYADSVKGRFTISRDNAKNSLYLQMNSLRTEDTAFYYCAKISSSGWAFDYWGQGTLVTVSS VL: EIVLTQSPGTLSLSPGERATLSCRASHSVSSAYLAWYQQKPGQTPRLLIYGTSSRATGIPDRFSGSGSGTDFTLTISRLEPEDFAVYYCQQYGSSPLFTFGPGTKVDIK , FACS Cell Binding (Fold Above Background) observed: 35
